Reference for the values: ChEMBL document CHEMBL1201862

I'd be grateful if you could share measured GI50 for these entries.
system: SK-MEL-28; assay: NCI tumour cell line growth inhibition, 48 h
The source made the active and inactive calls. Cut-off read from the data, not from the text of the source: active = GI50 up to about 1.1 µM and inactive = higher.

O=C(NC1CCCCC1)c1cc2ccccc2cc1O    49.3 µM (inactive)
C=C(C)C1CCC2=CC(CC3(C)OC3C3=CC(C(=O)OC)=C(C1)O3)OC2=O (configuration not stated)    > 100 µM (inactive)
O=C1c2ccccc2C(=O)N1CCCSc1ccccc1    > 100 µM (inactive)
Cc1cc(N(CCC#N)S(=O)(=O)c2ccccc2)ccc1C=O    > 100 µM (inactive)
C=C1C(=O)OC2/C=C(\C)C(=O)CC3OC(C)(C)OC3(C)CC(OC(=O)/C(C)=C/C)C12 (configuration not stated)    11.9 µM (inactive)

Each compound below has a reported value. Please supply its GI50.
1. CC(C)(C)C(=O)C(N)C(=O)C(C)(C)C
2. CC(C)(C)c1cc(O)c2c(c1O)C(=O)CCC2

OUT:
> 100 µM (inactive)
42.6 µM (inactive)

----------
tested on: K562; assay: NCI tumour cell line growth inhibition, 48 h
Calls of active or inactive are those of the source. No stated cut-off is given here; in the data, active = GI50 up to about 1.1 µM and inactive = higher.
Valid outcomes are listed here; reply with one: Y (active), N (inactive)

Solved entries (count: 5):
CC1OC(n2ccc3ccc([N+](=O)[O-])cc32)C(O)C(O)C1O (stereo not given)    N
O=[N+]([O-])c1ccc(C2N3CCCCC3[C@@H]3c4[nH]c5ccccc5c4CCN23)cc1 (stereo not given in full)    N
CN(C)Cc1nsc(N(C)C)n1    N
CC1(C)CC(=O)C2=C(C1)NC(=S)C(C#N)C2c1ccccc1 (stereo not given)    N
C[N+](C)(C)CC1CCC(C[N+](C)(C)C)C1=O (stereo not given)    Y

IN: What outcome does the record of this test show for "Cc1ccc(S(=O)(=O)N/N=C(\C(=O)Nc2cccc([N+](=O)[O-])c2)c2nc3ccc([N+](=O)[O-])cc3nc2O)cc1" ?
OUT: N

IN: Test call for this compound, please: "CCc1cccc(C(C)C)c1NC1=C([n+]2ccc(C)cc2)C(=O)c2ccccc2C1=O.[O-][Cl+3]([O-])([O-])[O-]"
OUT: N

IN: Query: recorded result category for "Cc1cc(S(=O)(=O)O)ccc1/N=N/c1ccc(/N=N/c2c(O)ccc3ccccc23)c(C)c1" in this test
OUT: N

IN: # lookup: test call for NC(Cc1c[nH]c2ccccc12)P(=O)(O)O (stereo not given)
OUT: N

IN: Could you please tell me the result logged for "O=C(NC1CCCCC1)c1cc2ccccc2cc1O" in this assay?
OUT: N

----------
tested on: SF-539; assay: NCI tumour cell line growth inhibition, 48 h
Calls of active or inactive are those of the source. Rule as the data show it: active = GI50 up to about 1.1 µM and inactive = higher.
Give measured GI50 for each item. Keep answers brief.

CC1ON2CCCC2[C@H]1C(=O)N1C2CC3CCC2(CS1(=O)=O)C3(C)C (stereo not given in full)    > 100 µM (inactive)
COC(=O)C1=C(C(=O)OC)C2=S(SC3=C2CCCC3)S1 (stereo not given)    25.1 µM (inactive)

Batch lookup, GI50 per entry.
1. S=C=NCc1ccccc1 [BENZYL ISOTHIOCYANATE]
2. CCOC(=O)CN1C(=O)c2c(c(C)n(-c3ccccc3)c2C)C1=O
3. C/C=C(\C)C(O)C(C)C(O)C/C=C(C)/C=C(\C)C/C(C)=C/C/C=C(\C)C(O)C(C)c1ccc(CCC)c(=O)o1 (stereo not given)
4. COc1ccc(C2Cc3cc(OC)c(OC)c(OC)c3C2)cc1 (stereo not given)

OUT:
1. 1.82 µM (inactive)
2. 91.2 µM (inactive)
3. 14.1 µM (inactive)
4. 64.7 µM (inactive)

For each listed entry, give its GI50.
1. COc1nc(NC2OC(COC(C)=O)C(OC(C)=O)C(OC(C)=O)C2OC(C)=O)c(/N=C/C=N/c2c(NC3OC(COC(C)=O)C(OC(C)=O)C(OC(C)=O)C3OC(C)=O)nc(OC)n(C)c2=O)c(=O)n1C (stereo not given)
2. NC(Cc1c[nH]c2ccccc12)P(=O)(O)O (stereo not given)
3. CC(=O)OC1COC(n2c(=S)n(-c3ccc(C)cc3)c(=O)c3ccccc32)C(OC(C)=O)C1OC(C)=O (stereo not given)
4. CC1CC[C@@]2(OC1)OC1C[C@H]3[C@@H]4CC=C5CC(OC6OC(CO)C(OC7OC(CO)C(O)C(OC8OCC(O)C(O)C8O)C7OC7OC(CO)C(O)C(O)C7O)C(O)C6O)CCC5(C)[C@H]4CCC3(C)C1[C@@H]2C (stereo not given in full)
5. CC(C)(C)NCC(COc1ccc([N+](=O)[O-])cc1)OP(c1ccccc1)c1ccccc1 (stereo not given)
6. Cc1ccc(S(=O)(=O)N2CCCSCCSCCCSCC2)cc1

OUT:
["> 100 µM (inactive)", "> 100 µM (inactive)", "> 100 µM (inactive)", "3.6 µM (inactive)", "53.1 µM (inactive)", "> 100 µM (inactive)"]

----------
system: MCF7; test: NCI tumour cell line growth inhibition, 48 h
The source made the active and inactive calls. Rule as the data show it: active = GI50 up to about 1.1 µM and inactive = higher.
Parameter: GI50

CN1CCCCC1CCN1CCCCC1 (stereo not given)    > 100 µM (inactive)
CN(C)CCN1C(=O)c2cccc3cc(N)cc(c23)C1=O [AMONAFIDE]    1.87 µM (inactive)
C#CCN(Cc1ccc2[nH]c(N)nc(=O)c2c1)c1ccc(C(=O)NC(CCC(=O)O)C(=O)O)cc1 (stereo not given)    5.13 µM (inactive)
O=C(Nc1ccccc1)Oc1ccc(C(=S)Nc2ccc(Br)cc2)cc1    19.1 µM (inactive)
C[N+](C)(C)CC1CCC(C[N+](C)(C)C)C1=O (stereo not given)    1.75 µM (inactive)

Can you give me GI50 for all of these, one by one?
1. COc1cc2c(cc1OC)C(=O)/C(=C/c1cc(Cl)cc(Cl)c1)C2
2. CN(C)c1ccc(/C=N\NC(=O)c2ccccc2Nc2ccccc2C(=O)N/N=C/c2ccc(N(C)C)cc2)cc1
3. CC(C)(C)C(=O)C(N)C(=O)C(C)(C)C
4. COc1cc2oc(=O)cc(C)c2cc1OC
5. [O-][S+](Nc1ccccc1)c1ccc(-c2ccccc2)cc1 (stereo not given)
6. CCOC(=O)c1csc(NC(=O)CN(C)C)n1
7. CCC/C=C/C=C/C1CC(O)C(O)C(=O)C1CO (stereo not given)
8. C/C=C/C=C/C1=NN(c2cccc(S(=O)(=O)O)c2)C2(C1)C(Cl)C(=O)N2c1nc2ccccc2s1 (stereo not given)

OUT:
2.99 µM (inactive)
> 100 µM (inactive)
> 100 µM (inactive)
> 100 µM (inactive)
> 100 µM (inactive)
> 100 µM (inactive)
> 100 µM (inactive)
13.4 µM (inactive)

Your task in this section: give GI50 for each listed record.
1. O=C(Nc1ccccc1)Nn1c(-c2cccs2)nc2ccc(I)cc2c1=O
2. N=c1oc2c(Cl)cc(Cl)cc2cc1C(=O)Nc1cccc2ccccc12

OUT:
1. 29.1 µM (inactive)
2. > 53.6 µM (inactive)

----------
tested on: NCI/ADR-RES; experiment: NCI tumour cell line growth inhibition, 48 h
The source made the active and inactive calls. Rule as the data show it: active = GI50 up to about 1.1 µM and inactive = higher.
Would you kindly list GI50 for each of these compounds?

Worked cases, answers included:
Cc1ccc(Cl)cc1/N=N/C(=O)NNc1cc(Cl)ccc1C    19.9 µM (inactive)
CCOC(=O)c1cc2nc3ccccc3c(=O)n2c2ccccc12    > 10 µM (inactive)
CC(CN(C)C)C(O)(c1ccccc1)c1ccccc1 (stereo unspecified)    > 100 µM (inactive)
CC(=O)Nc1ccc(S(=O)(=O)[N-]C2C(=O)c3ccccc3C(=O)C2[n+]2ccccc2)cc1 (stereo unspecified)    17.1 µM (inactive)
CN(C)Cc1nsc(N(C)C)n1    > 100 µM (inactive)

Let's switch to this compound now.
IN: // Input: CC1=CCCC2C1(C)CCC(C)C2(C)Cc1cc(O)ccc1O (stereo unspecified) . Output its GI50 only.
OUT: 5.21 µM (inactive)

----------
system: MOLT-4; assay: NCI tumour cell line growth inhibition, 48 h
Activity calls are given as the source filed them. Rule as the data show it: active = GI50 up to about 1.1 µM and inactive = higher.
Parameter: GI50

Record excerpt, results attached:
c1cc2c(cc1NC1=NCCO1)CCCC2    2.65 µM (inactive)
Cc1ccc(Cl)cc1/N=N/C(=O)NNc1cc(Cl)ccc1C    13.9 µM (inactive)
CC(C)(C)NCC(COc1ccc([N+](=O)[O-])cc1)OP(c1ccccc1)c1ccccc1 (configuration not stated)    18.9 µM (inactive)
CCCCCCCCCCCCCCCCCCNc1ccn(C2OC(CO)C(O)C2O)c(=O)n1 (configuration not stated)    4.58 µM (inactive)

List reported GI50 for each of these molecules:
1. C#CCOC(=O)C(N)C(C)O (configuration not stated)
2. NC1CCCCC1.O=C(O)C1(P(=O)(O)O)CC1
3. COc1cc2oc(=O)cc(C)c2cc1OC

OUT:
1. > 100 µM (inactive)
2. > 100 µM (inactive)
3. > 100 µM (inactive)
